Data origin, for the record: PubChem BioAssay (NCATS)

method.summary: Cell Viability - Jurkat (AID 426);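 further: potency means the concentration at half of the fitted maximal effect; cells exposed to compound for 40 hours at 37 °C before ATP read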
study.conditions: qHTS
Inconclusive results are not listed. Activity calls are given as the source filed them.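 How the source made its calls: active means dose-dependent loss of cell ATP signal giving a full or clear fitted curve, ranked by lower potency value; inconclusive means weak partial curve or response only at the top dose; inactive means no loss of viability signal.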
Respond only with the outcome that fits, drawn from label 1 (active), label 0 (inactive)

Some entries whose results are on file:
>>> class_assignment("C=CCCCCCCC=C")
"label 0"
>>> class_assignment("CC(C)=C1CCC(C)CC1=O (stereo unspecified)")
"label 0"
>>> class_assignment("CC(C)(O)CCC(C)(C)O")
"label 0"

Record request — test call for CCCCC(CC)CNCC(CC)CCCC (stereo unspecified)
label 0

* * *

method.summary: Cell Viability - LYMP2-021 (AID 974);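 further: compound exposure lasts 24 hours at 37 °C; on the % scale 0 is the no-effect control and ±100 the full control effect; nearly all actives have a fitted effect of over 55% in size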
study.conditions: LYMP2-021 lymphoblastoid cells viability; series mostly up to 92.2 µM
Records with an inconclusive call do not appear. Calls of active or inactive are those of the source. Calls follow the shape of the dose curve; as a rule, active = well fitted cell-killing curve with a large enough effect; inconclusive = small, poorly fitted or top-dose-only effect; inactive = flat fitted curve, though single readings scatter.
Respond only with the outcome that fits, drawn from active, inactive

Record request — test call for CCc1ccccc1
inactive

Record request — test call for CC(=O)OC(C)=O
inactive

Record request — test call for O=[N+]([O-])c1cccc(Cl)c1
inactive

Record request — test call for N#Cc1ccccc1
inactive

Record request — test call for CC=C(Cl)Cl
inactive

Record request — test call for CCN(CC)c1cccc(O)c1
inactive

Record request — test call for CCOCCOCC
inactive

Record request — test call for O=C(O)c1ccc(C(=O)O)cc1
inactive

Record request — test call for COc1ccc(N)c(C)c1
inactive

* * *

method.summary: Cell Viability - SH-SY5Y (AID 544);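 further: cells exposed to compound for 40 hours; 0% = DMSO alone and -100% = 100 µM tamoxifen; nearly all actives have a fitted effect of over 55% in size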
study.conditions: SH-SY5Y neuroblastoma cell viability
Inconclusive results are not listed. Activity calls are given as the source filed them. Calls follow the shape of the dose curve; as a rule, active = well fitted cell-killing curve with a large enough effect; inconclusive = small, poorly fitted or top-dose-only effect; inactive = flat fitted curve, though single readings scatter.
Respond only with the outcome that fits, drawn from yes (1) = active, no (0) = inactive

Some entries whose results are on file:
>>> class_assignment("CC(C)C(C)C")
"no (0)"
>>> class_assignment("CCCCC(=O)N(C)C")
"no (0)"
>>> class_assignment("CC(C)(O)CCC(C)(C)O")
"no (0)"
>>> class_assignment("CCN(CC)c1cccc(O)c1")
"no (0)"
>>> class_assignment("Nc1nc(CC(=O)O)cs1")
"no (0)"
>>> class_assignment("C=CCOC(=O)COCCC(C)C")
"no (0)"

Record request — test call for CCCCCCCCCCCCOCC1CO1 (stereo not drawn)
no (0)

Record request — test call for CCOc1ccccc1N
no (0)

Record request — test call for O=Cc1c(Cl)cccc1Cl
no (0)

* * *

method.summary: qHTS assay for small molecule agonists of retinoid X receptor alpha signaling (AID 588544)
study.conditions: HEK293T RXRa-UAS-bla, beta-lactamase reporter, 18 h; 530 nm emission
Text: NIH Chemical Genomics Center [NCGC] U.S. Environmental Protection Agency [EPA] National Institutes of Environmental Health Sciences [NIEHS] National Toxicology Program [NTP] NCGC Assay Overview The Retinoid X receptor (RXR), a nuclear hormone receptor is expressed in liver, spleen, placenta, epidermis, central nervous system. […]
Results filed as inconclusive are left out.
outcome.measure: max response (%)
Give bare numbers, in %.

Some molecules with known max response results, for comparison:
>>> reading("Nc1cccc2c(=O)[nH][nH]c(=O)c12")
-4.82
>>> reading("Cc1cc(C)cc(N)c1")
-7.06
>>> reading("C1CCCC1")
-15.2
>>> reading("CCCCCCCCCCCCOCC1CO1 (stereo not given)")
6.34
>>> reading("CCCCC(CC)COCC1CO1 (stereo not given)")
-2.88
>>> reading("CC/C(C)=N/O")
-14.2
>>> reading("CCc1ccccc1O")
-12.3
>>> reading("NCCCCCCN")
1.96

Would you mind giving max response for every molecule in the list below?
1. Cc1ccc(C)c(N)c1
2. CCOc1cccc(N)c1
3. O=[N+]([O-])c1ccc2nc[nH]c2c1
4. C=CCCCCCCC=C
5. CC(C)=C1CCC(C)CC1=O (stereo not given)

7.96
-8.66
-26.8
-11.6
-4.57
